# EXPERIMENTAL TARGET: T1, LHD202 chainB
# T1 construct: also called LHD202B
# T1 chain: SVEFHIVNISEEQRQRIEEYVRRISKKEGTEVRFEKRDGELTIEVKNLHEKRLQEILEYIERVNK
# PROTOCOL NOTES: BLI, global kinetic fit, 1:1 model
ASSAY METRIC: Kd (µM)
Numeric only. Scale: µM

In: Please report the recorded Kd for LHD202 chainA (designed binder, also called LHD202A) GRQEKVLKSIEETVRKMGVTMETHRSGNKVKVVIKGLHESQQEQLRKDVHETLRKQGVVAVTQKHGDTVTIYVTE .
Out: 4.8
